Just for reference, paper PMC5540273 is where these values come from.

- Tested on: IKK-alpha
- Construct: gene CHUK
- experimentalParameters: concentration: 1 μM, replicates: in singlicate; n = 1;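 also: KINOMEscan kinase panel screen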
Known %Inh of a selection of compounds
# output: number + unit

Answered examples (3):
[
  {
    "smilesStructure": "O=c1cc(N2CCOCC2)nc2n(Cc3cccc(Cl)c3)ccn12",
    "targetOrSystem": "IKK-alpha",
    "outcomeMeasure": "%Inh",
    "observedResult": "3%"
  },
  {
    "smilesStructure": "Cn1ccc2ncnc(Nc3ccc(Oc4cccc(Cl)c4)c(Cl)c3)c21",
    "targetOrSystem": "IKK-alpha",
    "outcomeMeasure": "%Inh",
    "observedResult": "3%"
  },
  {
    "smilesStructure": "C[C@@H]1CCN(C(=O)CO)C[C@@H]1N(C)c1ncnc2[nH]ccc12",
    "targetOrSystem": "IKK-alpha",
    "outcomeMeasure": "%Inh",
    "observedResult": "0%"
  }
]

%Inh measured on "Cl.O=S(=O)(c1cccc(F)c1)c1ccc(Nc2ncnc3cc(Br)sc23)cc1Cl" = 0%

%Inh measured on "Cl.Fc1ccccc1COc1ccc(Nc2ncnc3ccc(-c4nnc(C(F)(F)F)o4)cc23)cc1Cl" = 0%

%Inh measured on "Fc1cccc(COc2ccc(Nc3ncnc4nn5ccccc5c34)cc2Cl)c1" = 11%

%Inh measured on "CSc1ccc(NC2=C(c3ccccc3Cl)C(=O)NC2=O)cc1" = 0%

%Inh measured on "Cl.Cn1ccc(-c2cccc(Nc3ccnc4cc(-c5nccs5)ccc34)c2)n1" = 30%

%Inh measured on "Clc1ccc(-c2cc(-c3c[nH]nc3-c3ccccn3)ccn2)cc1" = 0%

###

Known %Inh of a selection of molecules
- System: BMPR1B
- experimentalParameters: concentration: 1 μM, replicates: in singlicate; n = 1
Report as a plain number; the unit % is understood.

[
  {
    "molecule": "Cl.c1ccc(Cn2ncc3cc(Nc4ncnc5ccccc45)ccc32)cc1 [GW273749]",
    "targetOrSystem": "BMPR1B",
    "%Inh, %": 0
  },
  {
    "molecule": "CCc1nc(-c2cccc(C)c2)c(-c2ccnc(NC(=O)c3ccccc3)c2)s1",
    "targetOrSystem": "BMPR1B",
    "%Inh, %": 9
  },
  {
    "molecule": "COc1ccc(NC(=O)c2ccc(-c3cc(-c4nnc(C)o4)ccc3C)cc2)cc1 [GW595885]",
    "targetOrSystem": "BMPR1B",
    "%Inh, %": 0
  }
]

%Inh measured on "Clc1cc(Nc2ncnc3cc[nH]c23)ccc1OCc1ccccn1" = 8

%Inh measured on Clc1ccc(-c2cc(-c3c[nH]nc3-c3ccccn3)ccn2)cc1 [GW681251] = 0

%Inh measured on Cl.Cl.c1ccc(-c2cc3ccncc3cc2OC2CCNCC2)cc1 [GSK1122999] = 0

%Inh measured on CCc1nc(-c2cccc(N(C)S(=O)(=O)c3ccccc3)c2)c(-c2ccnc(Nc3ccc(N4CCN(C(C)=O)CC4)nc3)n2)s1 [GSK1645895] = 0

%Inh measured on Oc1ccc2ncnc(Nc3ccc(OCc4ccccc4)cc3)c2c1 [GI262866] = 0

%Inh measured on O=C(c1ccc(-c2cc(-c3c[nH]nc3-c3ccccn3)ccn2)cc1)N1CCCC1 [GW792479] = 9

%Inh measured on "Cn1ccc2ncnc(Oc3ccc(NC(=O)Nc4cccnc4)c(Cl)c3)c21" = 0
